Recorded values, source ChEMBL document CHEMBL1122844.

System: Mus musculus
testSummary: Effective dose required to produce analgesic action in mice after peroral administration
Format: functional
condition: po
The following compounds are listed with their measured log10(ED50) values.
For clarity, the numbers are log10 values of ED50 expressed in mg/kg.

{"columns": ["testSmiles", "log10(ED50)"],
 "data": [
  ["C[C@H]1C2Cc3ccc(O)cc3[C@]1(C)CCN2CCc1cccs1", -1.15],
  ["COc1ccc(C(=O)Sc2ccc3c(c2)[C@]2(C)CCN(CC=C(C)C)C(C3)[C@@H]2C)cc1", 0.72],
  ["C[C@H]1C2Cc3ccc(SC(=O)c4ccc(Cl)cc4)cc3[C@]1(C)CCN2C", 0.45],
  ["C[C@H]1[C@H]2Cc3ccc(SC(=O)c4ccccc4)cc3[C@]1(C)CCN2C", 0.00],
  ["CC(C)=CCN1CC[C@@]2(C)c3cc(OC(=O)c4ccccc4)ccc3CC1[C@@H]2C", 0.41]
]}

[Q] log10(ED50) for C[C@H]1C2Cc3ccc(SC(=O)C(C)(C)C)cc3[C@]1(C)CCN2CCc1ccccc1 ?
[A] 0.72

[Q] Query: log10(ED50); subject: CC(C)=CCN1CC[C@@]2(C)c3cc(O)ccc3C[C@@H]1[C@@H]2C
[A] -0.44

[Q] What value of measured log10(ED50) is listed for CCOC(=O)Sc1ccc2c(c1)[C@]1(C)CCN(CCc3ccccc3)C(C2)[C@@H]1C ?
[A] 1.27

[Q] Entry CC(C)=CCN1CC[C@@]2(C)c3cc(SC(=O)c4ccccc4)ccc3CC1[C@@H]2C : reported log10(ED50) = ?
[A] 0.60

[Q] # log10(ED50) lookup, item CN1CC[C@]23c4c5ccc(O)c4O[C@H]2[C@@H](O)C=C[C@H]3[C@H]1C5
[A] -0.28

###

Parameter ED50: see the listing below.
Test system: Mus musculus
testSummary: Effective dose required to produce analgesic action in mice after peroral administration
Assay type: functional
condition: po
Give just the numeric value; mg/kg need not be written.

{"columns": ["testSmiles", "endpointUnit", "endpointResult"],
 "data": [
  ["C[C@H]1C2Cc3ccc(O)cc3[C@]1(C)CCN2C", "mg/kg", 0.46],
  ["C[C@H]1C2Cc3ccc(SC(=O)c4ccccc4)cc3[C@]1(C)CCN2CCc1ccccc1", "mg/kg", 1.7],
  ["CCC(=O)Sc1ccc2c(c1)[C@]1(C)CCN(CCc3ccccc3)C(C2)[C@@H]1C", "mg/kg", 7],
  ["C[C@H]1C2Cc3ccc(SC(=O)c4ccccc4)cc3[C@]1(C)CCN2C", "mg/kg", 1.05],
  ["C[C@H]1C2Cc3ccc(OC(=O)c4ccccc4)cc3[C@]1(C)CCN2C", "mg/kg", 1.7]
]}

[Q] Give the measured ED50 of CC(C)=CCN1CC[C@@]2(C)c3cc(SC(=O)c4ccccc4)ccc3C[C@@H]1[C@@H]2C .
[A] 0.74

[Q] So what does the record say about ED50 for COc1ccc(C(=O)Sc2ccc3c(c2)[C@]2(C)CCN(CCc4ccccc4)C(C3)[C@@H]2C)cc1 ?
[A] 5.3

[Q] What value of measured ED50 is listed for CC(=O)Sc1ccc2c(c1)[C@]1(C)CCN(C)C(C2)[C@@H]1C ?
[A] 4.5
